test: Assessment of Plasma Exposure in DBA/2J mice; format: in vivo, mouse; conditions: male, DBA/2J; Group 2: 25 mg/kg PO, Vehicle 1; mouse plasma
readout: Tmax

Tmax for COCCNc1nc(-c2nccn2C)nc2sc(-c3cccc(OC)c3Cl)c(-c3ccccc3)c12 [Compound 9] ?
4 h

---

target: KRas G12C mutant (Homo sapiens (Human), UniProt P01116, G12C); assay: Ras GTP Binding Domain Inhibition Assay, KRas G12C mutant; conditions: + SOS, read-out: KRas G12C mutant + SOS: % inh.
Sequence (P01116 other isoform, or with tags, fused parts or gaps G12C): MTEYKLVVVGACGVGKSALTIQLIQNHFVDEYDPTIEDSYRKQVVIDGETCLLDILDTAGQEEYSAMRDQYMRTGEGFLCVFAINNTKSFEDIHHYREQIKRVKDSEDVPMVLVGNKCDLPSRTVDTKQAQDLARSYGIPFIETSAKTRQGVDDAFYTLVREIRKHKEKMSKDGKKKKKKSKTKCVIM
Listing: inhibition at 20 µM of selected molecules

Item COc1cc(Cn2c(-c3nccn3C)nc3sc(-c4ccn(C(C)C)n4)c(C)c3c2=O)ncn1 [Compound 35] with KRas G12C mutant (Homo sapiens (Human), UniProt P01116, G12C) - inhibition at 20 µM?
1 to 25%

Item COCCNc1nc(-c2nccn2C)nc2sc(-c3cccc(OC)c3Cl)c(-c3ccc(OC)cc3)c12 [Compound 7] with KRas G12C mutant (Homo sapiens (Human), UniProt P01116, G12C) - inhibition at 20 µM?
76 to 100%

Item CO[C@H]1C[C@H](CNc2nc(-c3nccn3C)nc3sc(-c4ccn(C(C)C)n4)c(C)c23)C1 [Compound 16] with KRas G12C mutant (Homo sapiens (Human), UniProt P01116, G12C) - inhibition at 20 µM?
46 to 75%

Item COc1cc(Nc2nc(-c3nccn3C)nc3sc(-c4ccn(C(C)C)n4)c(C)c23)ncn1 [Compound 19] with KRas G12C mutant (Homo sapiens (Human), UniProt P01116, G12C) - inhibition at 20 µM?
76 to 100%

Item Cc1c(-c2ccn(C(C)C)n2)sc2nc(-c3nccn3C)nc(NCC3COCCN3C)c12 (racemic) [Compound 24] with KRas G12C mutant (Homo sapiens (Human), UniProt P01116, G12C) - inhibition at 20 µM?
76 to 100%

Item COc1cccc(-c2sc3nc(-c4nccn4C)nc(N[C@H]4C[C@H](OC)C4)c3c2C)c1F [Compound 42] with KRas G12C mutant (Homo sapiens (Human), UniProt P01116, G12C) - inhibition at 20 µM?
76 to 100%

Item COCCn1ccc(-c2sc3nc(-c4nccn4C)nc(NC[C@H]4CC[C@H]4COC)c3c2C)n1 (racemic) [Compound 38] with KRas G12C mutant (Homo sapiens (Human), UniProt P01116, G12C) - inhibition at 20 µM?
76 to 100%
